# Test system: Proteus mirabilis
# assay overview: MIC against Gram-negative bacteria: Proteus mirabilis
# Assay type: cell-based
# conditions: 96-well plate, 5×10^5 CFU/mL, 37° C., 10 h
# Method: 1. Gram-negative bacteria, such as E. coli BL21, Pseudomonas aeruginosa, Klebsiella pneumonia, Enterobacter cloacae, Aeromonas hydrophila, Citrobacter diversus, Moraxella catarrhalis, Proteus mirabilis, Proteus vulgaris, Serratia marcescens, etc were streaked on solid LB medium and cultured respectively. Then, typical clones were picked, inoculated into common liquid LB medium respectively, and cultured at 37° C. with shaking at 185 rpm until the McFarland specific turbidity was 0.5. […]
measurement kind: MIC against P. mirabilis (µg/mL)
Report the figure in µg/mL without appending any unit label.

Below are worked cases with known answers.
- substance: "PRT520 (CRCNAGGSFSEVCHSQTGQCECRANVQGQRCDKCKAGTFGLQSARGCVP; listed as Homo sapiens)"
  measured on: "Proteus mirabilis"
  MIC against P. mirabilis (µg/mL): 25
- substance: "PRT577 (CACHPSRARGPTCNEFTGQCHCRAGFGGRTCSECQELHWGDPGLQCHA; listed as Homo sapiens)"
  measured on: "Proteus mirabilis"
  MIC against P. mirabilis (µg/mL): 50
- substance: "PRT452 (DIDECTEMPFVCSQKCENVIGSYICKCAPGYLREPDGKTC; listed as Homo sapiens)"
  measured on: "Proteus mirabilis"
  MIC against P. mirabilis (µg/mL): 12.5
- substance: "PRT491 (LDICSKNPCHNGGLCEEISQEVRGDVFPSYTCTCLKGYAGNHCE; listed as Homo sapiens)"
  measured on: "Proteus mirabilis"
  MIC against P. mirabilis (µg/mL): 50
- substance: "PRT498 (CDCNPHGSVHGDCDRTSGQCVCRLGASGLRCDECEPRHILMETDCVS; listed as Homo sapiens)"
  measured on: "Proteus mirabilis"
  MIC against P. mirabilis (µg/mL): 25
- substance: "PRT539 (CDCSGNSDPNLIFEDCDEVTGQCRNCLRNTTGFKCERCAPGYYGDARIAKNCAV; listed as Homo sapiens)"
  measured on: "Proteus mirabilis"
  MIC against P. mirabilis (µg/mL): 50

Asked: Given PRT576 (CTCNLLGTNPQQCPSPDQCHCDPSSGQCPCLPNVQGPSCDRCAPNFWNLTSGHGCQP; listed as Homo sapiens) , state its recorded MIC against P. mirabilis.
Given back: 12.5

Asked: Param item: PRT555 (CDCSAAGTQGNACRKDPRVGRCLCKPNFQGTHCELCAPGFYGPGCQP; listed as Homo sapiens)
Given back: 50

Hey, just so you know, these numbers are from patent US9833497B2.
